Molecular target: 5-hydroxytryptamine receptor 2C (Homo sapiens) (UniProt P28335)
Sequence (P28335 whole entry): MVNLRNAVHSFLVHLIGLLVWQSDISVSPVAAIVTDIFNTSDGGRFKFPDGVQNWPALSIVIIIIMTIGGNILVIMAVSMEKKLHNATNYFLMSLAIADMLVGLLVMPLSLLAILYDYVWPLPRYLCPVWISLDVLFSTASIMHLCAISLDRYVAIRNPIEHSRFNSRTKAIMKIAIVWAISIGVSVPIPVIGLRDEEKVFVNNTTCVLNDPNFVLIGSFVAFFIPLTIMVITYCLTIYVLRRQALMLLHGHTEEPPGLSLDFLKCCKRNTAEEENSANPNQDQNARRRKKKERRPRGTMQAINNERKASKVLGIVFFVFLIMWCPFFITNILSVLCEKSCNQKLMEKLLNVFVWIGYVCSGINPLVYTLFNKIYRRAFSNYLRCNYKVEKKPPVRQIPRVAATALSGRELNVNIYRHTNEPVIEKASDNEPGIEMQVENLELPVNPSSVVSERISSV
Experiment: Agonist activity at human 5HT2C receptor expressed in HEK293 cells at 10 uM assessed as calcium flux by FLIPR assay relative to serotonin
Format: functional, cell-based
Property: Emax (%)
Your answer should be a plain number; it is taken to be in %.

Query: API: value(readout= Emax, system= 5-hydroxytryptamine receptor 2C (Homo sapiens) (UniProt P28335), query= NC[C@H]1C[C@@H]1c1ccccc1C(F)(F)F (relative stereo) )
Response: 101

Query: Observed Emax on 5-hydroxytryptamine receptor 2C (Homo sapiens) (UniProt P28335) for CC(C)(O)C#Cc1cccc([C@H]2C[C@@H]2CN)c1 (relative stereo) , please.
Response: 62

Query: Quick check: Emax on 5-hydroxytryptamine receptor 2C (Homo sapiens) (UniProt P28335), item NC[C@H]1C[C@@H]1c1cccc(NC(=O)c2ccccc2)c1 (relative stereo) ?
Response: 26

Query: Form entry - test system: 5-hydroxytryptamine receptor 2C (Homo sapiens) (UniProt P28335); read-out: Emax; compound: NC[C@H]1C[C@@H]1c1cccc(Br)c1 (relative stereo)
Response: 90

Query: Which Emax is reported with 5-hydroxytryptamine receptor 2C (Homo sapiens) (UniProt P28335) for this entry: NC[C@H]1C[C@@H]1c1ccccc1-c1cc2ccccc2o1 (relative stereo) ?
Response: 66

Query: Return Emax measured with 5-hydroxytryptamine receptor 2C (Homo sapiens) (UniProt P28335) given this compound: Cc1cccc(Cl)c1[C@H]1C[C@@H]1CN (relative stereo)
Response: 97

Query: Observed Emax on 5-hydroxytryptamine receptor 2C (Homo sapiens) (UniProt P28335) for NC[C@@H]1C[C@H]1c1ccccc1Br , please.
Response: 113

Query: Given the entry NC[C@H]1C[C@H]1c1ccccc1 (racemic) , what Emax was observed with 5-hydroxytryptamine receptor 2C (Homo sapiens) (UniProt P28335)?
Response: 104

Query: So what Emax did NC[C@H]1C[C@@H]1c1cccc(NCc2ccccc2)c1 (relative stereo) get with 5-hydroxytryptamine receptor 2C (Homo sapiens) (UniProt P28335)?
Response: 77

Query: Which Emax is reported with 5-hydroxytryptamine receptor 2C (Homo sapiens) (UniProt P28335) for this entry: NC[C@H]1C[C@@H]1c1cccc(F)c1F (relative stereo) ?
Response: 101

Query: Value wanted: Emax (5-hydroxytryptamine receptor 2C (Homo sapiens) (UniProt P28335)) of entry NC[C@H]1C[C@@H]1c1ccccc1F (relative stereo)
Response: 91

Query: Reported Emax for 5-hydroxytryptamine receptor 2C (Homo sapiens) (UniProt P28335), given NC[C@H]1C[C@@H]1c1ccccc1-c1ccc(F)cc1 (relative stereo) ?
Response: 74

Query: Give Emax (5-hydroxytryptamine receptor 2C (Homo sapiens) (UniProt P28335)) of the following compound: NC[C@H]1C[C@@H]1c1ccc(-c2ccc(F)cc2)cc1 (relative stereo)
Response: 45

Query: Enter reported Emax observed with 5-hydroxytryptamine receptor 2C (Homo sapiens) (UniProt P28335) for NC[C@H]1C[C@@H]1c1cccc(C#CCCCCO)c1 (relative stereo)
Response: 79

Query: Provide value of Emax for this record tested with 5-hydroxytryptamine receptor 2C (Homo sapiens) (UniProt P28335): NC[C@H]1C[C@@H]1c1ccc(Br)cc1 (relative stereo)
Response: 87

Query: Give recorded Emax with 5-hydroxytryptamine receptor 2C (Homo sapiens) (UniProt P28335) for the following compound: NC[C@H]1C[C@@H]1c1ccc(F)cc1F (relative stereo)
Response: 98

Query: Lookup: Emax / 5-hydroxytryptamine receptor 2C (Homo sapiens) (UniProt P28335) / NC[C@H]1C[C@@H]1c1ccccc1NC(=O)Nc1ccc(Cl)cc1 (relative stereo)
Response: 38

Query: Observed Emax on 5-hydroxytryptamine receptor 2C (Homo sapiens) (UniProt P28335) for NC[C@H]1C[C@@H]1c1cccc(C(F)(F)F)c1 (relative stereo) , please.
Response: 94

Query: Fill in the recorded Emax for this compound, with 5-hydroxytryptamine receptor 2C (Homo sapiens) (UniProt P28335) as test system: Cc1ccc([C@H]2C[C@@H]2CN)cc1 (relative stereo)
Response: 69

----------
Biological target: 5-hydroxytryptamine receptor 2C (Homo sapiens) (UniProt P28335)
Assay: Agonist activity at human 5HT2C receptor expressed in HEK293 cells at 10 uM assessed as calcium flux by FLIPR assay relative to serotonin
Assay type: functional, cell-based
Just a reminder that ties go to rule not met: only Emax strictly below 80% counts as rule met.

Query: Given NC[C@H]1C[C@@H]1c1ccc(Cl)cc1 (relative stereo) , is recorded Emax strictly lower than 80%?
Response: rule not met

Query: Is it true that Emax reported for NC[C@@H]1C[C@H]1c1ccccc1Br (relative stereo) is less than 80%?
Response: rule met

Query: Is Emax strictly under 80% for the entry NC[C@H]1C[C@@H]1c1ccccc1Br ?
Response: rule not met

Query: Check if Emax falls below 80% for NC[C@H]1C[C@@H]1c1cccc(F)c1 (relative stereo) .
Response: rule not met

Query: Does the reported Emax of the following molecule sit strictly below 80%? NC[C@@H]1C[C@H]1c1ccccc1 (relative stereo)
Response: rule not met

Query: Is the reported Emax for N[C@@H]1C[C@H]1c1ccccc1.N[C@H]1C[C@@H]1c1ccccc1 (racemic) strictly below 80%?
Response: rule not met

Query: Identify whether the molecule NC[C@H]1C[C@@H]1c1c(F)cccc1F (relative stereo) records Emax below 80%.
Response: rule not met

Query: Just wondering, is Emax of C[C@H]1CNCCc2ccc(Cl)cc21 below 80%?
Response: rule not met

Query: Could you please tell me whether Emax recorded for CC(=O)Nc1ccccc1[C@H]1C[C@@H]1CN (relative stereo) is less than 80%?
Response: rule met

Query: is_below(Emax, 80%) for NC[C@H]1C[C@@H]1c1ccccc1 ?
Response: rule not met

----------
Biological target: 5-hydroxytryptamine receptor 2A (Homo sapiens, UniProt P28223)
Sequence (P28223 whole entry): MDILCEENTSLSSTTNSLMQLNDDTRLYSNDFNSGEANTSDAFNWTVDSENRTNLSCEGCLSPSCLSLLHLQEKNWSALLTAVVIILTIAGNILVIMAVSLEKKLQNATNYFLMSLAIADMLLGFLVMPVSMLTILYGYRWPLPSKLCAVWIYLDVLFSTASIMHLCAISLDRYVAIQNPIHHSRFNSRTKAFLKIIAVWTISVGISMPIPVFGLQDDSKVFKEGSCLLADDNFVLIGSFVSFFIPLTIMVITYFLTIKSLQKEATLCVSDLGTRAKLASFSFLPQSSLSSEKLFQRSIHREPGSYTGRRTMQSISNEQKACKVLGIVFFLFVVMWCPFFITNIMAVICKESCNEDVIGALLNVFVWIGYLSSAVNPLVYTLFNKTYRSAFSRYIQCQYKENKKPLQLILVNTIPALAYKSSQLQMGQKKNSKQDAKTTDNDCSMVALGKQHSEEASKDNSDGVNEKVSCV
Experiment: Agonist activity at human 5HT2A receptor expressed in HEK293 cells at 10 uM assessed as calcium flux by FLIPR assay relative to serotonin
Format: functional, cell-based
Field: Emax. Provide a value for each of the compounds that follow.
Dear colleague, please return just the value in %, with no unit written.

Query: Which Emax value is on record for NC[C@H]1C[C@@H]1c1ccc(F)c(F)c1 (relative stereo) ?
Response: 96

Query: # lookup: Emax of NC[C@H]1C[C@@H]1c1ccc(F)cc1 (relative stereo)
Response: 67

Query: Give its Emax value. Item: NC[C@H]1C[C@@H]1c1cccc(O)c1 (relative stereo)
Response: 92

Query: Which Emax reading was recorded for the compound NC[C@H]1C[C@@H]1c1cccc(C(F)(F)F)c1 (relative stereo) ?
Response: 35

Query: So what's the measured Emax for this one? NC[C@H]1C[C@@H]1c1cccc(F)c1F (relative stereo)
Response: 45

Query: Quick one: Emax of NC[C@H]1C[C@@H]1c1ccccc1F (relative stereo) ?
Response: 52

Query: Given Cc1ccc(Cl)c([C@H]2C[C@@H]2CN)c1F (relative stereo) , state its recorded Emax.
Response: 65

Query: # lookup: Emax of NC[C@@H]1C[C@H]1c1ccccc1Br (relative stereo)
Response: 71

Query: If you can, please state the reported Emax value of NC[C@H]1C[C@@H]1c1ccc(F)cc1F (relative stereo) .
Response: 85

Query: Quick one: Emax for Cc1ccccc1[C@H]1C[C@@H]1CN (relative stereo) ?
Response: 69

Query: For NC[C@H]1C[C@@H]1c1c(F)cccc1F (relative stereo) , what is its reported Emax?
Response: 38

Query: Can you look up the measured Emax of NC[C@H]1C[C@@H]1c1ccccc1 for me?
Response: 79

----------
Target: 5-hydroxytryptamine receptor 2A (Homo sapiens, UniProt P28223)
Experiment: Agonist activity at human 5HT2A receptor expressed in HEK293 cells at 10 uM assessed as calcium flux by FLIPR assay relative to serotonin
Type: functional, cell-based
Please provide measured Emax for the entries that follow.
Write the answer as a number in %, unit excluded.

Query: Look up Emax for this compound: Cc1ccc([C@H]2C[C@@H]2CN)cc1C (relative stereo)
Response: 40

Query: Which Emax value is on record for NC[C@@H]1C[C@H]1c1ccccc1 (relative stereo) ?
Response: 74

Query: // Emax lookup, key: NC[C@H]1C[C@@H]1c1cccc(Cl)c1 (relative stereo)
Response: 42

Query: What value of measured Emax is listed for NC[C@H]1C[C@@H]1c1ccc(Br)cc1 (relative stereo) ?
Response: 26

Query: Please give the measured Emax for this compound: NC[C@H]1C[C@@H]1c1cccc(F)c1 (relative stereo)
Response: 71

Query: Quick one: Emax of C#Cc1cccc([C@H]2C[C@@H]2CN)c1 (relative stereo) ?
Response: 42

Query: Could you share which Emax value was measured for Cc1ccc([C@H]2C[C@@H]2CN)cc1 (relative stereo) ?
Response: 18

Query: Any idea what Emax was measured for Cc1ccc([C@H]2C[C@@H]2CN)c(Br)c1 (relative stereo) ?
Response: 62

Query: Value lookup for Emax; key = COc1cccc([C@H]2C[C@@H]2CN)c1 (relative stereo)
Response: 90

Query: Requested read-out: Emax. Entry: NC[C@H]1C[C@@H]1c1ccc(Cl)cc1Cl (relative stereo)
Response: 88

Query: Emax for NC[C@H]1C[C@@H]1c1ccccc1Br ?
Response: 76

Query: Record request: Emax value, item Cc1cccc(Cl)c1[C@H]1C[C@@H]1CN (relative stereo)
Response: 56

Query: // query Emax value for entry C[C@H]1CNCCc2ccc(Cl)cc21
Response: 26

Query: # lookup: Emax of NC[C@H]1C[C@@H]1c1ccc(F)cc1Cl (relative stereo)
Response: 91

Query: Quick one: Emax of NC[C@H]1C[C@@H]1c1ccccc1O (relative stereo) ?
Response: 81

Query: // lookup Emax for COc1ccccc1[C@H]1C[C@@H]1CN (relative stereo)
Response: 61

Query: Which Emax reading was recorded for the compound NC[C@H]1C[C@@H]1c1cccc(Br)c1 (relative stereo) ?
Response: 55

Query: Param item = NC[C@H]1C[C@@H]1c1cccc(Cl)c1Cl (relative stereo) ; retrieve measured Emax.
Response: 77

Recorded values, source ChEMBL document CHEMBL1153382.
